B1: library; numbered along this chain (parent)
chain: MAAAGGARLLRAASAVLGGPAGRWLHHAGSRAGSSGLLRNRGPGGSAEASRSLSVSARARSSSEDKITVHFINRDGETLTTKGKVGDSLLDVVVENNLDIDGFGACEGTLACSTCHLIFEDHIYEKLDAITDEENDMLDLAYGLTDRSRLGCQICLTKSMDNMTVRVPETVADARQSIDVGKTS

Variants of: B1
PROTOCOL_DETAILS: scaled log2 fold change in cell abundance, elesclomol vs control (0 = silent mean, 1 = nonsense mean) (scaled log2 ratio); higher = higher viability under elesclomol (loss of FDX1 cuproptosis function);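 further: variant abundance is its share of total variant reads in each endpoint sample, from next-generation sequencing of the integrated ORF PCR-amplified out of genomic DNA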
PARTICULARS: with ABC1 FDX1 KO; elesclomol 5 nM; glucose 10 mM; 14 days
QUANTITY_MEASURED: scaled log2 fold change
Give bare numbers.

Here's what some known entries look like.
S148C 0.0537
G22M 0.793

Required: scaled log2 fold change, one value per variant below.
1. R31N
2. A141E
3. S184Y
4. R51V
5. T68W
6. K158T

Given back:
1: -0.000941; 2: 0.304; 3: -0.125; 4: -0.873; 5: 0.0579; 6: -0.0261

Required: scaled log2 fold change, one value per variant below.
1. G5W
2. L10F
3. S35E
4. G36C
5. D87L
6. F119T

Given back:
0.225
-0.0904
-0.0617
-0.121
-0.301
0.311
